organism: Rattus norvegicus; experiment: Open TG-GATES - Regimen: Daily Repeat; format: toxicity, organism-based, Sprague-Dawley; parameters: regimen Daily Repeat, gender Male, age 6 weeks; settings: in vivo, po, 100 mg/kg, […], tissue Plasma, route gavage, dose level Low, time 7 day
valueType: ALP (IU/L)
Give just the number in IU/L; leave the unit off.

Example entries and their recorded answers appear below.
compound: COc1ccc2[nH]c([S+]([O-])Cc3ncc(C)c(OC)c3C)nc2c1 (stereo not given)
observedResult: 805
//
compound: CCOC(=O)CCC(=O)O[C@H]1[C@H](O[C@@H]2[C@@H](C)[C@H](O[C@H]3C[C@@](C)(OC)[C@@H](O)[C@H](C)O3)[C@@H](C)C(=O)O[C@H](CC)[C@@](C)(O)[C@H](O)[C@@H](C)C(=O)[C@H](C)C[C@@]2(C)O)O[C@H](C)C[C@@H]1N(C)C [ERYTHROMYCIN ETHYLSUCCINATE]
observedResult: 1592.6

### Prompt Report ALP for CCOc1ccc(NC(=O)CC(C)O)cc1 (stereo not given) please.
### Response 1437.2

### Prompt Another compound to check: `NC(N)=Nc1nc(CSCCC(N)=NS(N)(=O)=O)cs1`
### Response 940.8

### Prompt What do we get for `COC1=CC(=O)C[C@@H](C)[C@]12Oc1c(Cl)c(OC)cc(OC)c1C2=O` ?
### Response 865.8
